# procedure_text: self-splicing fitness, log relative to wild type (ln ratio); higher = more splicing; Tetrahymena group I intron in knt gene, E. coli kanamycin selection, DiMSum; sequences stand for … in CUCUCU…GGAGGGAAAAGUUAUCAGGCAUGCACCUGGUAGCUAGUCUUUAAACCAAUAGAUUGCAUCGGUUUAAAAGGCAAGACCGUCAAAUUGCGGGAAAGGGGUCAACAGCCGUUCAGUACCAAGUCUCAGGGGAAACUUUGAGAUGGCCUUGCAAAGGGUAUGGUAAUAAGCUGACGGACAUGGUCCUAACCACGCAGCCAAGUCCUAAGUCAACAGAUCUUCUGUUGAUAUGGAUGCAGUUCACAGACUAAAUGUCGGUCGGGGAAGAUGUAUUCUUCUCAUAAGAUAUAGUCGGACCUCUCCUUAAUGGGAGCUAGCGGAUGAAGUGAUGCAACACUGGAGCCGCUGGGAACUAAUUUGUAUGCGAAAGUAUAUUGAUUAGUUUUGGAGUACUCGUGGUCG;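 also: selection with 25 µg/mL kanamycin versus none on LB agar overnight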
# stated_conditions: 37 °C
quantity_measured: self-splicing fitness (ln)
Give bare numbers.

- seq_text: "CCGCAGCAAUAUUACGACCU"
  self-splicing fitness (ln): -2.63
- seq_text: "UUACAGCAAUAUUACGUCGG"
  self-splicing fitness (ln): -0.125
- seq_text: "UCCAAGCAAUAUUACGAACA"
  self-splicing fitness (ln): -0.969
- seq_text: "CAUUAGCAAUAUUACGACGU"
  self-splicing fitness (ln): -0.0623
- seq_text: "UUGUAGCAAUAUUACGUCGG"
  self-splicing fitness (ln): -0.478
- seq_text: "CUAGAGCAAUAUUACGAGGC"
  self-splicing fitness (ln): -1.02
- seq_text: "GAAAAGCAAUAUUACGUCGU"
  self-splicing fitness (ln): -1.29
- seq_text: "UCCAAGCAAUAUUACGAGGC"
  self-splicing fitness (ln): -2.26

Next sequence, self-splicing fitness (ln) to be filled in.
According to the records, this sequence UGGUAGCAAUAUUACGAUUA displays self-splicing fitness (ln) of 0.0463
